assay system: Aldo-keto reductase family 1 member B1 (Homo sapiens)
measurement notes: Inhibitory activity against human placental aldose reductase in Orange A column at day 8
parameter: IC50 (µM)
Numbers only, in µM.

O=C(O)c1ccc2nc3cc(O)ccc3c(=O)n2c1; 7.3
O=c1c(Cl)c(-c2nn[nH]n2)oc2ccccc12; 200
O=C(O)C1=CC(=O)C2C=CC(O)=CC2O1 (stereo unspecified); 3.1
O=C(O)CN1C(=O)c2cccc3cccc(c23)C1=O; 79
CC1OC(O)C(O)C(O)C1Oc1c(-c2ccc(O)c(O)c2)oc2cc(O)cc(O)c2c1=O (stereo unspecified); 9

Read the next record carefully.
What measured IC50 goes with CCOC(=O)C(=O)Nc1cc([N+](=O)[O-])cc(C(=O)O)c1O ?
4

----------
assay system: Aldo-keto reductase family 1 member B1 (Homo sapiens)
measurement notes: Inhibitory activity against human placental aldose reductase in Orange A column at time 2
parameter: IC50 (µM)
One number for each entry, in µM.

What measured IC50 goes with O=C(O)CN1C(=O)c2cccc3cccc(c23)C1=O ?
140

----------
assay system: Aldo-keto reductase family 1 member B1 (Homo sapiens, UniProt P15121)
measurement notes: Inhibitory activity against human placental aldose reductase in Orange A column at time 2
parameter: IC50 (µM)
Numbers only, in µM.

What measured IC50 goes with CC1OC(O)C(O)C(O)C1Oc1c(-c2ccc(O)c(O)c2)oc2cc(O)cc(O)c2c1=O (stereo unspecified) ?
16

----------
assay system: Aldo-keto reductase family 1 member B1 (Homo sapiens, UniProt P15121)
measurement notes: Inhibitory activity against human placental aldose reductase in Sepharose 4B column at day 7
So basically, if IC50 comes in under 20 µM it's Criterion met, and if it's 20 µM or more it's Criterion not met.

O=c1c(Cl)c(-c2nn[nH]n2)oc2ccccc12; Criterion not met
O=C(O)CN1C(=O)c2cccc3cccc(c23)C1=O; Criterion not met
O=C(O)c1ccc2nc3cc(O)ccc3c(=O)n2c1; Criterion met
CC1OC(O)C(O)C(O)C1Oc1c(-c2ccc(O)c(O)c2)oc2cc(O)cc(O)c2c1=O (stereo unspecified); Criterion met
O=C(O)C1=CC(=O)C2C=CC(O)=CC2O1 (stereo unspecified); Criterion met

Consider the compound CCOC(=O)C(=O)Nc1cc([N+](=O)[O-])cc(C(=O)O)c1O . Is its IC50 strictly less than 20 µM?
Criterion met

----------
Give measured pIC50 for each item. Keep answers brief.
assay system: Aldo-keto reductase family 1 member B1 (Homo sapiens)
measurement notes: Inhibitory activity against human placental aldose reductase in Orange A column at day 2
Numbers only, as −log10 of the molar value.

Consider the worked cases shown below.
O=C(O)C1=CC(=O)C2C=CC(O)=CC2O1 (centres undefined); 5.23
O=c1c(Cl)c(-c2nn[nH]n2)oc2ccccc12; 3.55

Batch request: pIC50 per item, same order as input.
1. O=C(O)c1ccc2nc3cc(O)ccc3c(=O)n2c1
2. CCOC(=O)C(=O)Nc1cc([N+](=O)[O-])cc(C(=O)O)c1O

[4.72, 5.49]

----------
Give measured IC50 for each item. Keep answers brief.
assay system: Aldo-keto reductase family 1 member B1 (Homo sapiens, UniProt P15121)
measurement notes: Inhibitory activity against human placental aldose reductase (HPAR)
One number for each entry, in µM.

Consider the worked cases shown below.
CC(C)OC(=O)c1cc(=O)c2ccc(O)cc2o1; 4.3
CCOC(=O)c1cc(=O)c2ccc(O)cc2o1; 5

Read the next record carefully.
Give IC50 (Aldo-keto reductase family 1 member B1 (Homo sapiens, UniProt P15121)) of the following compound: O=C(OCc1ccccc1)c1cc(=O)c2ccc(O)cc2o1
3.2
